Test system: OVCAR-5
PROTOCOL_SUMMARY: NCI tumour cell line growth inhibition, 48 h
Activity calls are given as the source filed them. Rule as the data show it: active = GI50 up to about 1.1 µM and inactive = higher.
MEASURED_PROPERTY: GI50

- COMPOUND: "Oc1c(Br)ccc2cccnc12"
  REPORTED_VALUE: "4.32 µM (inactive)"
- COMPOUND: "CCN(CC(COc1ccc2c(c1)[n+]([O-])nc(N)[n+]2[O-])OC(C)=O)C(C)=O (centres undefined)"
  REPORTED_VALUE: "> 100 µM (inactive)"
- COMPOUND: "CCOC(=O)c1cn(-c2ccccc2)c(=S)n2c1nc1ccccc12"
  REPORTED_VALUE: "> 100 µM (inactive)"
- COMPOUND: "C[C@@H]1OC(=O)C[C@H]2CC(=O)N(CCC3CN(S(=O)(=O)C(F)(F)F)c4ccc(Cc5ccc6c(c5)C(CCN5C[C@H]7[C@@H](CC(=O)O[C@H]7C)CC5=O)CN6S(=O)(=O)C(F)(F)F)cc43)C[C@@H]21 (some centres undefined)"
  REPORTED_VALUE: "> 100 µM (inactive)"

* * *

The compounds listed here are annotated with their GI50.
Tested on: HT-29
PROTOCOL_SUMMARY: NCI tumour cell line growth inhibition, 48 h
The source made the active and inactive calls. Cut-off read from the data, not from the text of the source: active = GI50 up to about 1.1 µM and inactive = higher.
MEASURED_PROPERTY: GI50

- COMPOUND: "Cn1nc(-c2ccccc2NC(=O)C(F)(F)F)c(=O)n(C)c1=S"
  TARGET_OR_SYSTEM: "HT-29"
  MEASURED_PROPERTY: "GI50"
  REPORTED_VALUE: "25.8 µM (inactive)"
- COMPOUND: "COc1nc2c(c(=O)n1C)NC(C(O)C(O)CO)C=N2 (stereo unspecified)"
  TARGET_OR_SYSTEM: "HT-29"
  MEASURED_PROPERTY: "GI50"
  REPORTED_VALUE: "> 10 µM (inactive)"
- COMPOUND: "C=C1C(=O)C([Si](C)(C)C)=C2C=C(C)C3(CC3)C12C (stereo unspecified)"
  TARGET_OR_SYSTEM: "HT-29"
  MEASURED_PROPERTY: "GI50"
  REPORTED_VALUE: "18.2 µM (inactive)"
- COMPOUND: "COc1ccc(-c2c(C#N)c(O)n(NS(=O)(=O)c3ccc(C)cc3)c(=O)c2C#N)cc1"
  TARGET_OR_SYSTEM: "HT-29"
  MEASURED_PROPERTY: "GI50"
  REPORTED_VALUE: "> 100 µM (inactive)"
- COMPOUND: "COc1ccc(C2C3=C(COC3=O)Oc3cc4c(cc32)OCO4)c(OC)c1 (stereo unspecified)"
  TARGET_OR_SYSTEM: "HT-29"
  MEASURED_PROPERTY: "GI50"
  REPORTED_VALUE: "6.65 µM (inactive)"
- COMPOUND: "CC1=CC(=O)/C(=C/N2CCNC2=S)C(=O)O1"
  TARGET_OR_SYSTEM: "HT-29"
  MEASURED_PROPERTY: "GI50"
  REPORTED_VALUE: "> 100 µM (inactive)"
- COMPOUND: "Oc1c(Br)ccc2cccnc12"
  TARGET_OR_SYSTEM: "HT-29"
  MEASURED_PROPERTY: "GI50"
  REPORTED_VALUE: "5.3 µM (inactive)"
- COMPOUND: "O=[N+]([O-])c1ccc(-c2cnc3ccccn23)cc1"
  TARGET_OR_SYSTEM: "HT-29"
  MEASURED_PROPERTY: "GI50"
  REPORTED_VALUE: "> 100 µM (inactive)"
- COMPOUND: "CC1(C)CC(=O)C2=C(C1)NC(SCC(=O)O)=C(C#N)C2c1ccc(Br)cc1 (stereo unspecified)"
  TARGET_OR_SYSTEM: "HT-29"
  MEASURED_PROPERTY: "GI50"
  REPORTED_VALUE: "> 100 µM (inactive)"
- COMPOUND: "O=c1c(-c2ccccc2)c2oc(c1-c1ccccc1)CS(=O)(=O)CCC2"
  TARGET_OR_SYSTEM: "HT-29"
  MEASURED_PROPERTY: "GI50"
  REPORTED_VALUE: "25.5 µM (inactive)"
- COMPOUND: "O=C(O/N=C1/CCC/C1=C\\c1ccccc1)c1ccc([N+](=O)[O-])cc1"
  TARGET_OR_SYSTEM: "HT-29"
  MEASURED_PROPERTY: "GI50"
  REPORTED_VALUE: "> 100 µM (inactive)"
